system: promyeloid leukemia HL60; assay: Tumor cell proliferation inhibition, CCK-8; assay type: cell-based; details: Homo sapiens, HL-60, 72 h, read-out: IC50 (mean ± SD) promyeloid leukemia HL60
measurement-label: pIC50
Field pIC50 (float): negative decimal logarithm of the concentration in molar.

Per the records, this compound ( Cc1[nH]c2ccccc2c1CCNCc1ccc(/C=C/C(=O)NO)cc1 ) has pIC50 equal to 7.91

----------
test system: human multiple myeloma cell line RPMI 8226; assay: Cell level anti-tumor activity test, CCK-8, multiple myeloma cells; assay type: cell-based; conditions: RPMI-8226, 72 h, read-out: IC50 (growth inhibition, RPMI 8226)
In this section, each of the molecules is paired with its reported pIC50.
Field pIC50 (float): negative decimal logarithm of the concentration in molar.

| molecule | assayed-system | observed-result |
| --- | --- | --- |
| C[C@H](NC(=O)c1nc(-c2nccs2)sc1C1CC1)c1ccc(C(=O)NO)cc1 | human multiple myeloma cell line RPMI 8226 | 7.55 |
| C[C@H](NC(=O)c1nc(-c2nc3c(s2)CCCC3)sc1C1CC1)c1ccc(C(=O)NO)cc1 | human multiple myeloma cell line RPMI 8226 | 6.86 |
| O=C(NO)c1ccc(CNC(=O)c2nc(-c3ncc(-c4ccccc4)s3)sc2C2CC2)cc1 | human multiple myeloma cell line RPMI 8226 | 8.10 |

Per the records, this molecule ( Cc1cnc(-c2nc(C(=O)N[C@@H](C)c3ccc(C(=O)NO)cc3)c(C3CC3)s2)s1 ) has pIC50 equal to 6.91

Per the records, this molecule ( C[C@H](NC(=O)c1nc(-c2ncc(-c3ccc(F)cc3)s2)sc1C1CC1)c1ccc(C(=O)NO)cc1 ) has pIC50 equal to 7.74

Per the records, this molecule ( Cc1csc(-c2nc(C(=O)N[C@@H](C)c3ccc(C(=O)NO)cc3)c(C3CC3)s2)n1 ) has pIC50 equal to 7.30

----------
assay: Preliminary metabolic experiments, oral bioavailability in mice; details: mouse, in vivo
measurement-label: bioavailability (%)
Express your answer in %, writing the number without its unit.

Per the records, this compound ( C[C@H](NC(=O)c1nc(-c2ncc(-c3ccccc3)s2)sc1C1CC1)c1ccc(C(=O)NO)cc1 [Compound H08] ) has bioavailability equal to 34.4

----------
tested on: Lung Cancer EBC-1; assay: Tumor cell proliferation inhibition, SRB; format: cell-based; details: Homo sapiens, EBC-1, 72 h, read-out: IC50 (mean ± SD) Lung Cancer EBC-1
measurement-label: pIC50
Field pIC50 (float): negative decimal logarithm of the concentration in molar.

Per the records, this molecule ( O=C(CCCCCCC(=O)Nc1ccccc1)NO ) has pIC50 equal to 5.81

----------
test system: Embryonic lung cells MRC-5; assay: Cell proliferation inhibition, SRB; type: cell-based; details: Homo sapiens, MRC5, 72 h, read-out: IC50 (mean ± SD) Embryonic lung cells MRC-5
measurement-label: IC50
Please answer in the form of a number followed by its unit of measurement.

Per the records, this molecule ( Cc1[nH]c2ccccc2c1CCNCc1ccc(/C=C/C(=O)NO)cc1 [LBH589, panobinostat] ) has IC50 equal to 76.9 nM

----------
molecular target: human HDAC1 (Homo sapiens, UniProt Q13547)
Sequence (Q13547 whole entry): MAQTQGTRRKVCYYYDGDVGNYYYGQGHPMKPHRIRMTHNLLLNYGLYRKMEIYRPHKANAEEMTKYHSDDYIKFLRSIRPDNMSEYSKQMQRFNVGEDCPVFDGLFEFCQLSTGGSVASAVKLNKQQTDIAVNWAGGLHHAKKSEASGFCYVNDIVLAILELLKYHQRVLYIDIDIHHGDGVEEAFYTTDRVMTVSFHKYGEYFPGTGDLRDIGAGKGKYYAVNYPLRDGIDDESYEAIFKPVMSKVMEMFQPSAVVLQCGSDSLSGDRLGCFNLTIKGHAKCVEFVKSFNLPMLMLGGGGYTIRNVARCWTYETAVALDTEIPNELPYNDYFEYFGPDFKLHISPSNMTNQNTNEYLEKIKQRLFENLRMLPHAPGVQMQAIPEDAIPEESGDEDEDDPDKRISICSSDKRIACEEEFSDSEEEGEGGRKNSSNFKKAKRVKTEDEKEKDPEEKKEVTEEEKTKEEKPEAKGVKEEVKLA
measurement-label: pIC50
Field pIC50 (float): negative decimal logarithm of the concentration in molar.

Per the records, this compound ( O=C(NO)c1ccc(CNC(=O)c2nc(-c3ncc(-c4ccccc4)s3)sc2C2CC2)cc1 [Compound H12] ) has pIC50 equal to 8.17

----------
test system: Human blood lymphoma Raji; test: Tumor cell proliferation inhibition, CCK-8; assay type: cell-based; details: 72 h, read-out: IC50 (mean ± SD) Human blood lymphoma Raji
measurement-label: IC50 (µM)
Express your answer in µM, writing the number without its unit.

Per the records, this compound ( Cc1[nH]c2ccccc2c1CCNCc1ccc(/C=C/C(=O)NO)cc1 [LBH589, panobinostat] ) has IC50 equal to 0.0123

----------
test system: Lung Cancer A549; assay: Tumor cell proliferation inhibition, SRB; format: cell-based; details: Homo sapiens, 72 h, read-out: IC50 (mean ± SD) Lung Cancer A549
measurement-label: pIC50
Field pIC50 (float): negative decimal logarithm of the concentration in molar.

Per the records, this compound ( Cc1[nH]c2ccccc2c1CCNCc1ccc(/C=C/C(=O)NO)cc1 ) has pIC50 equal to 7.31

Per the records, this compound ( O=C(CCCCCCC(=O)Nc1ccccc1)NO ) has pIC50 equal to 5.54

----------
tested on: stomach cancer MKN-74; test: Tumor cell proliferation inhibition, SRB; format: cell-based; settings: Homo sapiens, 72 h, read-out: IC50 (mean ± SD) stomach cancer MKN-74
measurement-label: IC50 (nM)
Express your answer in nM, writing the number without its unit.

Per the records, this compound ( Cc1[nH]c2ccccc2c1CCNCc1ccc(/C=C/C(=O)NO)cc1 ) has IC50 equal to 29.2

----------
test system: human multiple myeloma cell line RPMI 8226; assay: Cell level anti-tumor activity test, CCK-8, multiple myeloma cells; type: cell-based; conditions: RPMI-8226, 72 h, read-out: IC50 (growth inhibition, RPMI 8226)
In this section, each of the compounds is paired with its reported pIC50.
Field pIC50 (float): negative decimal logarithm of the concentration in molar.

| compound | observed-result |
| --- | --- |
| C[C@@H](NC(=O)c1nc(-c2ncc(-c3ccccc3)s2)sc1C1CC1)c1ccc(C(=O)NO)cc1 | 6.49 |
| COc1ccc(-c2cnc(-c3nc(C(=O)N[C@@H](C)c4ccc(C(=O)NO)cc4)c(C4CC4)s3)s2)cc1 | 7.92 |
| C[C@H](NC(=O)c1nc(-c2ncc(-c3ccccc3)s2)sc1C1CC1)c1ccc(C(=O)NO)cc1 | 8.10 |
| CC(NC(=O)c1nc(-c2nccs2)sc1C1CC1)c1ccc(C(=O)NO)cc1 (centres unmarked) | 6.74 |

// switching to the query compound
Measured pIC50 (human multiple myeloma cell line RPMI 8226), entry O=C(CCNC(=O)c1nc(-c2nccs2)sc1C1CC1)NO [bexanostat, reference compound] : 6.16
